Below: a set of entries, each annotated with reported pEC50.
target: PD-1/PD-L1 (Homo sapiens); experiment: cell-based; set-up: host or cells: PD-L1+ aAPC/CHO-K1 cells; PD-1 effector Jurkat cells
Sequence (Q9NZQ7 19-290): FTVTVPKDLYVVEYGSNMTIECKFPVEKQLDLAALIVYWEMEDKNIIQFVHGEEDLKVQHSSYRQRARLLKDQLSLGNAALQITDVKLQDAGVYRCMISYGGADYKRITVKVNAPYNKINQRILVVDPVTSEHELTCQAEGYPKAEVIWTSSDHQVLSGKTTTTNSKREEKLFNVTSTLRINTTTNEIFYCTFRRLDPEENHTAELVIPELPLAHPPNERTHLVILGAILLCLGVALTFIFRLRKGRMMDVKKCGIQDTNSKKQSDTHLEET
pEC50: −log10 of the molar value.

> print(dat)
                                 mol.smiles  attribute.measured  observed.value
1  Cc1c(NC(=O)c2ccc(CNCCCO)cn2)cccc1-c1cccc(NC(=O)c2ccc(CN3CCC(O)CC3)cn2)c1C               pEC50          < 6.74
2  Cc1c(NC(=O)c2ccc(CN[C@@H]3CCC[C@H]3O)cn2)cccc1-c1cccc(NC(=O)c2ccc(CN3CCC(O)CC3)cn2)c1C               pEC50          < 6.74
3  Cc1c(NC(=O)c2ccc(CN[C@@H](C)CO)cn2)cccc1-c1cccc(NC(=O)c2ccc(CN3CCC(O)CC3)cn2)c1C               pEC50          < 6.74
4  Cc1c(NC(=O)c2ccc(CNCCCO)cn2)cccc1-c1cccc(NC(=O)c2ccc(CN(C)C(CO)CO)cn2)c1C               pEC50           ~6.70

Task: Supply pEC50 value. Item: "Cc1c(NC(=O)c2ccc(CNCCCO)cn2)cccc1-c1cccc(NC(=O)c2ccc(CN(CCO)CCO)cn2)c1C"
Output: ~6.70
